molecular target: BRD4-BD1 (Homo sapiens (Human), UniProt O60885); assay: BRD4-H4 Tetraacetylated Peptide Inhibition AlphaScreen; assay type: biochemical; details: GST-BRD4-BD1 (aa 44-168) / biotinylated Acetyl-Histone H4 (Lys5, 8, 12, 16) peptide
pIC50: −log10 of the molar value.
// reported pIC50 for each item listed
Measure: pIC50

| Compound | Measure | Numeric Readout |
| --- | --- | --- |
| COC[C@H](C)n1c(-c2cn3c(C)nnc3c(NC(C)C)n2)nc2cnc(N3CCOCC3)cc21 [I-3] | pIC50 | 7.48 |
| CNc1nc(-c2nc3cnc(N4CCOCC4)cc3n2C[C@@H]2CCCO2)cn2c(C)nnc12 [I-7] | pIC50 | 7.26 |
| Cc1nnc2c(NC(C)C)nc(-c3nc4cnc(N5CCOCC5)cc4n3C[C@@H]3CCCO3)cn12 [I-8] | pIC50 | 7.26 |
| Cc1nnc2c(NC3CCN(S(C)(=O)=O)CC3)nc(-c3nc4cnc(N5CCOCC5)cc4n3CCOC(C)C)cn12 [I-23] | pIC50 | 6.91 |
| COC[C@H](C)n1c(-c2cn3c(C)nnc3c(NC(C)C)n2)nc2ccc(C(C)C)cc21 [I-15] | pIC50 | 6.91 |
| Cc1nnc2c(NC(C)C)nc(-c3nc4cnc(N5CCOC[C@@H]5C)cc4n3C(C)CC(F)(F)F)cn12 (some centres unmarked) [I-27] | pIC50 | 7.59 |
| COCCn1c(-c2cn3c(C)nnc3c(NC(C)C)n2)nc2cnc(N3CCOCC3)cc21 [I-1] | pIC50 | 7.49 |
| CNc1nc(-c2nc3cnc(N4CCOCC4)cc3n2[C@@H](C)COC)cn2c(C)nnc12 [I-6] | pIC50 | 7.29 |
| CNc1nc(-c2nc3cnc(N4CCOCC4)cc3n2CC2CCCO2)cn2c(C)nnc12 (centres unmarked) [I-9] | pIC50 | 7.19 |
| COCCn1c(-c2cn3c(C)nnc3c(NC(C)C)n2)nc2nc(N3CCOCC3)ccc21 [I-29] | pIC50 | 7.31 |
| COC[C@H](C)n1c(-c2cn3c(C)nnc3c(NC(C)C)n2)nc2ccc(C3CN(C)CCO3)cc21 (some centres unmarked) [I-24] | pIC50 | 7.20 |
| COC[C@H](C)n1c(-c2cn3c(C)nnc3c(N)n2)nc2cnc(N3CCOCC3)cc21 [I-26] | pIC50 | 6.91 |
| Cc1nnc2c(NC(C)C)nc(-c3nc4cnc(N5CCOCC5)cc4n3CCOC(C)C)cn12 [I-4] | pIC50 | 7.37 |
| COC[C@H](C)n1c(-c2cn3c(C)nnc3c(NC(C)C)n2)nc2cnc(N)cc21 [I-18] | pIC50 | 7.16 |
